test system: Vero E6 infected with SARS-CoV-2; experiment: inhibition of SARS-CoV-2 cytopathic effect; higher = more antiviral protection, active = above 15; conditions: 10000 nM; 48 h
Outcomes: Yes for active, No for inactive

| compound | group |
| --- | --- |
| CCCN1CCCC(c2cccc(O)c2)C1 (stereo in doubt) | No |
| COc1cccc(-n2nc(C(=O)O)cc2-c2ccc(C3CCCCC3)c(Cl)c2)c1 | No |
| C=C[C@@]1(C)CC(=O)[C@]2(O)[C@@]3(C)[C@@H](O)CCC(C)(C)[C@@H]3[C@H](OC(=O)CCN(C)C)[C@H](OC(C)=O)[C@@]2(C)O1 [colforsin-daproate] | Yes |
| CSc1ccccc1OCC(O)CNC(C)C (stereo unspecified) | No |
| Cc1ccc(-c2c(-c3nn(C)c4ncnc(N5CC[C@H](N6CCCCC6)C5)c34)cnn2C)cc1 | No |
| CCCCc1ccc2[nH]c(NC(=O)OC)nc2c1 | No |

* * *

system: Vero E6 infected with SARS-CoV-2; assay: inhibition of SARS-CoV-2 cytopathic effect; higher = more antiviral protection, active = above 15; settings: 8.33 nM; 48 h
test_readout: inhibition of SARS-CoV-2 cytopathic effect (%)

| molecule | measured_result |
| --- | --- |
| CCC[C@H](N[C@@H](C)C(=O)N1[C@H](C(=O)O)C[C@@H]2CCCC[C@@H]21)C(=O)OCC | 1.32 |
| COCC1=C(C(=O)O)N2C(=O)[C@@H](NC(=O)/C(=N\OC)c3csc(N)n3)[C@H]2SC1 | -1.09 |
| CC(=O)OCC(=O)[C@@]1(OC(C)=O)[C@@H](C)C[C@H]2[C@@H]3C[C@H](F)C4=CC(=O)C=C[C@]4(C)[C@@]3(F)[C@@H](O)C[C@@]21C [diflorasone-diacetate] | 2.43 |
| CC[C@H](/C=C/[C@@H](C)[C@H]1CC[C@H]2[C@@H]3CC=C4C[C@@H](O)CC[C@]4(C)[C@H]3CC[C@]12C)C(C)C [Stigmasterol (Stigmasterin)] | -0.75 |
| Cn1cc([S+](C)[O-])c(=O)c2ccc(F)cc21 (configuration not stated) | -0.91 |
| NCCc1cc(O)c(O)cc1O | 0.45 |
| C[N+]1(C)CCc2cc3c(cc2[C@H]1[C@@H]1OC(=O)c2c1ccc1c2OCO1)OCO3 [bicuculline-methochloride-(-)] | 0.48 |

* * *

The entries below are paired with their reported inhibition of SARS-CoV-2 cytopathic effect.
test system: Vero E6 infected with SARS-CoV-2; assay: inhibition of SARS-CoV-2 cytopathic effect; higher = more antiviral protection, active = above 15; conditions: 833.33 nM; 48 h
test_readout: inhibition of SARS-CoV-2 cytopathic effect (%)

| compound | target_system | measured_result |
| --- | --- | --- |
| N#Cc1c(N)nc(SCc2csc(-c3ccc(Cl)cc3)n2)c(C#N)c1-c1ccc(OCCO)cc1 | Vero E6 infected with SARS-CoV-2 | -2.63 |
| CCCNC(=O)N1N=C(c2ccc(N)cc2)c2cc3c(cc2C1C)OCO3 (stereo not given) | Vero E6 infected with SARS-CoV-2 | 0.9 |
| O=C(CC12CC3CC(CC(C3)C1)C2)Nc1cccc2nc(NCCNCCO)ccc12 | Vero E6 infected with SARS-CoV-2 | 4.43 |
| O=C(Nc1cccc(C(F)(F)F)c1)Nc1ccc(Br)cc1-c1nnn[nH]1 | Vero E6 infected with SARS-CoV-2 | 3.69 |
| Cc1nn(C)c2c1C(c1cccc(Cl)c1)=NCCN2 | Vero E6 infected with SARS-CoV-2 | -0.92 |
| O=C(O)c1nc(=O)[nH]c(=O)[nH]1 | Vero E6 infected with SARS-CoV-2 | 0.64 |
| COc1ccccc1OCCNCC(O)COc1cccc2[nH]c3ccccc3c12 (stereo not given) | Vero E6 infected with SARS-CoV-2 | -1.02 |
| C[C@@H](O)[C@H]1C(=O)N2C(C(=O)O)=C(SCCNC=N)C[C@H]12 | Vero E6 infected with SARS-CoV-2 | 2.66 |
| CCCCCCCCCCCCCCC[C@@H](O)[C@@H](N)CO | Vero E6 infected with SARS-CoV-2 | 2.02 |
| NCC[C@H](O)C(=O)N[C@@H]1C[C@H](N)[C@@H](O[C@H]2O[C@H](CN)[C@@H](O)[C@H](O)[C@H]2O)[C@H](O)[C@H]1O[C@H]1O[C@H](CO)[C@@H](O)[C@H](N)[C@H]1O | Vero E6 infected with SARS-CoV-2 | 2.36 |
| CCCNC(=O)NS(=O)(=O)c1ccc(Cl)cc1 [chlorpropamide] | Vero E6 infected with SARS-CoV-2 | -0.4 |
| O=C(NS(=O)(=O)c1ccc(Br)s1)c1ccc(Cl)cc1Cl | Vero E6 infected with SARS-CoV-2 | -0.93 |
| O=S(=O)(O)CCS | Vero E6 infected with SARS-CoV-2 | 5.57 |
| O=C(O)Cc1ccc(OCCNC[C@H](O)c2ccccc2)cc1 | Vero E6 infected with SARS-CoV-2 | -0.56 |
| CC(=O)O[C@@]12CO[C@@H]1C[C@H](O)[C@@]1(C)C(=O)[C@H](O)C3=C(C)[C@@H](O)C[C@@](O)([C@@H](OC(=O)c4ccccc4)[C@H]21)C3(C)C | Vero E6 infected with SARS-CoV-2 | -4.55 |
| C=C(NC(=O)C(=C)NC(=O)c1csc(C2=N[C@@H]3c4csc(n4)[C@H]4NC(=O)c5csc(n5)[C@H]([C@](C)(O)[C@@H](C)O)NC(=O)[C@H]5CSC(=N5)/C(=C/C)NC(=O)[C@H]([C@@H](C)O)NC(=O)c5csc(n5)[C@]3(CC2)NC(=O)[C@H](C)NC(=O)C(=C)NC(=O)[C@H](C)NC(=O)[C@H]([C@@H](C)CC)N[C@@H]2C=Cc3c([C@H](C)O)cc(nc3[C@H]2O)C(=O)O[C@@H]4C)n1)C(N)=O | Vero E6 infected with SARS-CoV-2 | 1.58 |
| O=C(O)[C@H]1CC[C@H](c2cc3cccnc3c(-c3cccc(F)c3)n2)CC1 | Vero E6 infected with SARS-CoV-2 | 0.23 |
| COc1ccc(NS(=O)(=O)c2sc3ccc(Cl)cc3c2C)cc1N1CCNCC1 | Vero E6 infected with SARS-CoV-2 | 3.23 |
| CC(=O)O/N=C1\C(=O)N(Cc2cc(Cl)ccc2Cl)c2ccc(Cl)cc21 | Vero E6 infected with SARS-CoV-2 | 3.77 |
| CN(C(=O)CCCOc1ccc2[nH]c(=O)ccc2c1)C1CCCCC1 [cilostamide] | Vero E6 infected with SARS-CoV-2 | 0.52 |
| Cc1ncc(C[n+]2csc(CCOP(=O)(O)OP(=O)(O)O)c2C)c(N)n1 [thiamine-pyrophosphate] | Vero E6 infected with SARS-CoV-2 | 2.37 |
| CN[C@H](CC(C)C)C(=O)N[C@H]1C(=O)N[C@@H](CC(N)=O)C(=O)N[C@H]2C(=O)N[C@H]3C(=O)N[C@H](C(=O)N[C@H](C(=O)O)c4cc(O)cc(O)c4-c4cc3ccc4O)[C@H](O[C@H]3C[C@](C)(N)[C@@H](O)[C@H](C)O3)c3ccc(c(Cl)c3)Oc3cc2cc(c3O[C@@H]2O[C@H](CO)[C@@H](O)[C@H](O)[C@H]2O[C@H]2C[C@](C)(NCc3ccc(-c4ccc(Cl)cc4)cc3)[C@@H](O)[C@H](C)O2)Oc2ccc(cc2Cl)[C@H]1O | Vero E6 infected with SARS-CoV-2 | 0.82 |
| NNC(=O)CN1C(=O)CN=C(c2ccccc2)c2cc(Br)ccc21 | Vero E6 infected with SARS-CoV-2 | 2.01 |
| CC1(C)C(=O)N(c2ccc(C#N)c(C(F)(F)F)c2)C(=O)N1CCCCO | Vero E6 infected with SARS-CoV-2 | 0.45 |
| CC12CCC(C(=O)N(CCCCN3CCN(c4ccccn4)CC3)C1=O)C2(C)C (stereo not given) | Vero E6 infected with SARS-CoV-2 | 0.95 |
